FYI, the data here is from patent US8952024B2.

Test system: pigweed (Amaranthus retroflexus)
assay explanation: Test A pre-/postemergence plant response
Format: in vivo
test conditions: Preemergence, 125 g ai/ha; 0 to 100 scale, 0 = no effect, 100 = complete control
We begin with a simple list: items and their reported Plant response rating, Pigweed.
Just the number, please, no unit after it.

Measured Plant response rating, Pigweed for this entry O=C1CCCC(O)=C1C(=O)c1cnc(-c2ccccc2)n(-c2ccc(F)cc2)c1=O on pigweed (Amaranthus retroflexus): 90

---

We begin with a simple list: items and their reported Plant response rating, Barnyardgrass.
Test system: barnyardgrass (Echinochloa crus-galli)
assay explanation: Test A pre-/postemergence plant response
Type: in vivo
test conditions: Preemergence, 500 g ai/ha; visual injury, 0 to 100 scale (0 no effect, 100 complete control), approx. ten days
Just the number, please, no unit after it.

Worked examples, 8 compounds total:
So for CCCn1c(-c2ccc(Br)cc2)ncc(C(=O)C2=C(O)CCCC2=O)c1=O , the logged Plant response rating, Barnyardgrass turned out to be 10

So for COCCn1c(-c2ccn(C)n2)ncc(C(=O)C2=C(O)CCCC2=O)c1=O , the logged Plant response rating, Barnyardgrass turned out to be 60

So for Cc1ccc(C)c(-n2c(-c3ccccc3)ncc(C(=O)C3=C(O)CCCC3=O)c2=O)c1 , the logged Plant response rating, Barnyardgrass turned out to be 100

So for CCn1c(-c2cccc(F)c2)ncc(C(=O)C2=C(O)CCCC2=O)c1=O , the logged Plant response rating, Barnyardgrass turned out to be 60

So for O=C1CCCC(O)=C1C(=O)c1cnc(-c2ccsc2)n(CC2CCCO2)c1=O (stereo not drawn) , the logged Plant response rating, Barnyardgrass turned out to be 60

So for CCCn1c(-c2cccc(F)c2)ncc(C(=O)C2=C(O)CCCC2=O)c1=O , the logged Plant response rating, Barnyardgrass turned out to be 100

So for CC(C)c1ncc(C(=O)C2=C(O)CCCC2=O)c(=O)n1-c1ccccc1 , the logged Plant response rating, Barnyardgrass turned out to be 90

So for CCCn1c(-c2ccn(C)n2)ncc(C(=O)C2=C(O)CCCC2=O)c1=O , the logged Plant response rating, Barnyardgrass turned out to be 0

# evaluate next
So for COCCn1c(-c2ccco2)ncc(C(=O)C2=C(O)CCCC2=O)c1=O , the logged Plant response rating, Barnyardgrass turned out to be 90

---

System: galium (catchweed bedstraw, Galium aparine)
assay explanation: Test B pre-/postemergence plant response
Format: in vivo
test conditions: Preemergence, 31 g ai/ha; scale 0 to 100 (0 no effect, 100 complete control)
Text: […] Treated plants and controls were maintained in a greenhouse for 13 to 15 days, after which time all treated plants were visually evaluated and compared to controls. […]
measurement label: Plant response rating, Galium

Worked examples, 2 compounds total:
So for Cc1cccc(-n2c(-c3cccc(Cl)c3)ncc(C(=O)C3=C(O)CCCC3=O)c2=O)c1 [Compound 45] , the logged Plant response rating, Galium turned out to be 40

So for CCn1c(-c2ccccc2)ncc(C(=O)C2=C(O)CCCC2=O)c1=O [Compound 49] , the logged Plant response rating, Galium turned out to be 0

Continuing:
So for COCCCn1c(-c2cc(F)cc(F)c2)ncc(C(=O)C2=C(O)C3CCC(C3)C2=O)c1=O (stereo not drawn) [Compound 244] , the logged Plant response rating, Galium turned out to be 55

---

Test system: bermudagrass (Cynodon dactylon)
assay explanation: Test B pre-/postemergence plant response
Type: in vivo
test conditions: Postemergence, 250 g ai/ha; scale 0 to 100 (0 no effect, 100 complete control)
Text: […] Treated plants and controls were maintained in a greenhouse for 13 to 15 days, after which time all treated plants were visually evaluated and compared to controls. […]
We begin with a simple list: items and their reported Plant response rating, Bermudagrass.
Just the number, please, no unit after it.

So for CC(C)Cc1ncc(C(=O)C2=C(O)CCCC2=O)c(=O)n1-c1ccccc1 [Compound 68] , the logged Plant response rating, Bermudagrass turned out to be 98

So for CCCc1ncc(C(=O)C2=C(O)CCCC2=O)c(=O)n1-c1cccc(C)c1 [Compound 79] , the logged Plant response rating, Bermudagrass turned out to be 85

# evaluate next
So for COCCOCCn1c(-c2ccccc2)ncc(C(=O)C2=C(O)CCCC2=O)c1=O [Compound 91] , the logged Plant response rating, Bermudagrass turned out to be 95
